Cited source: patent US20240327535A1

Biological target: T1, extracellular domain of human BCMA (human, UniProt Q02223 1-54)
T1 construct: amine-linked to Octet AR2G tips; also called hsBCMA; BCMA (human)
T1 sequence: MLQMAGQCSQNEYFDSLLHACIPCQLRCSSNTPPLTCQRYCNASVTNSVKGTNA
Assay: Octet BLI; Fab 200 nM
pKd: −log10 of the molar value.
pKd for assorted binders
Measured Property: pKd

>>> observed("AB200-R1H32-R2Vk25 (Fab, V domains shown) VH: QVQLVQSGAEVKKPGSSVKVSCKASGGTFSNYWMHWVRQAPGQGLEWMGATYRSHSDTYYNQKFKSRVTITADKSTSTAYMELSSLRSEDTAVYYCARGAIYHGYDVIDNWGQGTLVTVSS VL: DIQMTQSPSSLSASVGDRVTITCRASQSISSYLNWYQQKPGKAPKLLIYATSNIQSGVPSRFSGSGSGTDFTLTISSLQPEDFATYYCQQYRRIPWTFGQGTKLEIKR")
8.98
>>> observed("AB200-R1H32-R2Vk22 (Fab, V domains shown) VH: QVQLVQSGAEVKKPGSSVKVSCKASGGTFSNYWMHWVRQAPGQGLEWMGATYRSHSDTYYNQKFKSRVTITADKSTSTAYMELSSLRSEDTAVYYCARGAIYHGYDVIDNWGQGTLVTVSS VL: DIQMTQSPSSLSASVGDRVTITCRASQSISSYLNWYQQKPGKAPKLLIYATSNLQSGVPSRFSGSGSGTDFTLTISSLQPEDFATYYCQQYRKIPWSFGQGTKLEIKR")
8.98
>>> observed("AB200-R1H32-R2Vk31 (Fab, V domains shown) VH: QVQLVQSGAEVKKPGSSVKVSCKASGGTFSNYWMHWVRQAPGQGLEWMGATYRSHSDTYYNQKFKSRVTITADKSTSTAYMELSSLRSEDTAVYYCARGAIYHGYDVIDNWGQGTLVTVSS VL: DIQMTQSPSSLSASVGDRVTITCRASQSISSYLNWYQQKPGKAPKLLIYATSNLQIGVPSRFSGSGSGTDFTLTISSLQPEDFATYYCQQFRRLPWTFGQGTKLEIKR")
9.18
